Biological target: Melanocyte-stimulating hormone receptor (Mus musculus)
Sequence (Q01727 whole entry): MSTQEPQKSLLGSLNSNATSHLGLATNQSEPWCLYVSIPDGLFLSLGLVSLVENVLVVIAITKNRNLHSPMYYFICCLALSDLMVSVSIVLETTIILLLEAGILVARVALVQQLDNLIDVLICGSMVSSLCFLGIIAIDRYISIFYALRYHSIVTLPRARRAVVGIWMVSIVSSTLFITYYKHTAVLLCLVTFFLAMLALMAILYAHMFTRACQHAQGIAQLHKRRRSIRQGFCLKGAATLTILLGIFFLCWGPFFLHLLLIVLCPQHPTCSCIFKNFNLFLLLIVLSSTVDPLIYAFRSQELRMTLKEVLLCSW
Assay: Agonist activity at mouse melanocortin receptor 1 expressed in HEK293 cells assessed as stimulation of intracellular cAMP accumulation incubated for 24 hrs by beta-galactosidase reporter gene assay
Format: functional, cell-based
pEC50: −log10 of the molar value.
valueType: pEC50

Would you please look over these solved cases?
# compound, pEC50
rows = [
    ("CC(C)[C@@H]1CNC(=N)N1C[C@@H]1CCCN1C[C@@H](Cc1ccccc1)N1C[C@@H](C(C)C)N(CC23CC4CC(CC(C4)C2)C3)C1=N", 4.32),
    ("CC(C)C[C@@H]1CNC(=N)N1C[C@@H]1CCCN1C[C@@H](CC1CCCCC1)N1C[C@@H](C(C)C)N(CC23CC4CC(CC(C4)C2)C3)C1=N", 6.24),
    ("CCC[C@@H]1CN([C@H](Cc2ccccc2)CN2CCC[C@H]2CN2C(=N)NC[C@H]2C(C)C)C(=N)N1CCCC(C)C", 4.64),
    ("CCC[C@@H]1CN([C@H](CC2CCCCC2)CN2CCC[C@H]2CN2C(=N)NC[C@H]2CC(C)C)C(=N)N1CC1CCC(C(C)(C)C)CC1 (stereo partly specified)", 6.30),
]

[P] CC(C)[C@@H]1CNC(=N)N1C[C@@H]1CCCN1C[C@@H](CC1CCCCC1)N1C[C@@H]([C@@H](C)O)N(CC23CC4CC(CC(C4)C2)C3)C1=N
[Q] CC(C)C[C@@H]1CNC(=N)N1C[C@@H]1CCCN1C[C@@H](Cc1ccccc1)N1C[C@@H](C(C)C)N(CC23CC4CC(CC(C4)C2)C3)C1=N
## Input Between these two entries, P and Q , state which has the higher pEC50. Bench note: the answer is the label of the chosen record.
## Output P
